tested on: NOMO1; test: cell viability relative to DMSO control; higher = less cytotoxic; settings: RPMI 5 mM glucose + 10% dialyzed FBS; 48 h; 15.4 µM
reported-metric: cell viability (%)

- compound: "O=NN(CCCl)C(=O)NC1CCCCC1"
  target-entity: "NOMO1"
  observed-result: 109
- compound: "Cl.Cl.Cl.O[C@@H](COc1cccc2ncccc12)CN1CCN([C@@H]2c3ccccc3[C@@H]3[C@H](c4ccccc42)C3(F)F)CC1"
  target-entity: "NOMO1"
  observed-result: 78.2
- compound: "CC1CCC(C(=O)N(c2cc(C#CC(C)(C)C)sc2C(=O)O)C2CCC(O)CC2)CC1 (stereo not given)"
  target-entity: "NOMO1"
  observed-result: 65.2
- compound: "COC1=C(N2CCNC(C)C2)C(=CC3=C1N(\\C=C(C(O)=O)/C3=O)C4CC4)F (stereo not given)"
  target-entity: "NOMO1"
  observed-result: 99.1
- compound: "COC1=CC2=NC=CC(=C2C=C1)OC3=CN=C(NC(=O)C/4=C(C)/N(CC(C)(C)O)N(C4=O)C5=CC=CC=C5)C=C3"
  target-entity: "NOMO1"
  observed-result: 94.1

---

system: SEM cells; test: cell viability relative to DMSO control; higher = less cytotoxic; conditions: HPLM + 10% dialyzed FBS; 48 h; 0.0211 µM
The following molecules are listed with their measured cell viability values.
reported-metric: cell viability (%)

- molecule: "COC1=NC(=NC(=C1N\\C2=N\\CCN2)Cl)C"
  unit: "%"
  observed-result: 91.8
- molecule: "CC(=O)O[C@H]1C(=O)[C@]2(C)[C@@H](O)C[C@H]3OC[C@@]3(OC(C)=O)C2[C@H](OC(=O)C4=CC=CC=C4)[C@]5(O)C[C@H](OC(=O)[C@H](O)[C@@H](NC(=O)C6=CC=CC=C6)C7=CC=CC=C7)\\C(=C1/C5(C)C)C (some centres undefined)"
  unit: "%"
  observed-result: 27.9
- molecule: "Cl.Cl.Cl.O[C@@H](COc1cccc2ncccc12)CN1CCN([C@@H]2c3ccccc3[C@@H]3[C@H](c4ccccc42)C3(F)F)CC1"
  unit: "%"
  observed-result: 83.8
- molecule: "CN(CC#C)C/C1=C/C2=CC=CC=C2OC3=CC=CC=C13"
  unit: "%"
  observed-result: 80.1

---

Collected cell viability values appear next to each entry.
tested on: NOMO1; experiment: cell viability relative to DMSO control; higher = less cytotoxic; conditions: RPMI 5 mM glucose + 10% dialyzed FBS; 48 h; 0.0211 µM
reported-metric: cell viability (%)

- smiles-notation: "CO[C@H]1/C=C/O[C@@]2(C)Oc3c(C)c(O)c4c(O)c(c5c(nc6cc(C)ccn65)c4c3C2=O)NC(=O)/C(C)=C\\C=C\\[C@H](C)[C@H](O)[C@@H](C)[C@@H](O)[C@@H](C)[C@H](OC(C)=O)[C@@H]1C"
  reported-metric: "cell viability"
  unit: "%"
  observed-result: 108
- smiles-notation: "CCc1cncnc1N1CCN(Cc2nc3cc(C(F)(F)F)ccc3[nH]2)CC1"
  reported-metric: "cell viability"
  unit: "%"
  observed-result: 100
- smiles-notation: "CCCCCOC(=O)NC\\1=N\\C(=O)N(\\C=C1F)[C@@H]2O[C@H](C)[C@@H](O)[C@H]2O"
  reported-metric: "cell viability"
  unit: "%"
  observed-result: 105
- smiles-notation: "CC[C@H](CC[C@@H](C)[C@H]1CC[C@H]2[C@@H]3C\\C=C/4C[C@@H](O)CC[C@]4(C)[C@H]3CC[C@]12C)C(C)C"
  reported-metric: "cell viability"
  unit: "%"
  observed-result: 107
- smiles-notation: "CCCc1nc(C(C)(C)O)c(C(=O)O)n1Cc1ccc(-c2ccccc2-c2nn[nH]n2)cc1"
  reported-metric: "cell viability"
  unit: "%"
  observed-result: 116
- smiles-notation: "CN(CC#C)C/C1=C/C2=CC=CC=C2OC3=CC=CC=C13"
  reported-metric: "cell viability"
  unit: "%"
  observed-result: 87
- smiles-notation: "OC1=CC=C(C=C1)\\C2=C\\OC3=C(C=CC(=C3)O)C2=O"
  reported-metric: "cell viability"
  unit: "%"
  observed-result: 107
- smiles-notation: "CC1=CC=CC=C1N2\\C(=N/C3=C(C(=CC=C3)C)C2=O)C[N]4C=NC5=C4N=CN=C5N"
  reported-metric: "cell viability"
  unit: "%"
  observed-result: 97.1

---

Each entry below carries its reported cell viability.
system: SEM cells; assay: cell viability relative to DMSO control; higher = less cytotoxic; conditions: RPMI 5 mM glucose + 10% FBS; 48 h; 15.4 µM
reported-metric: cell viability (%)

- molecule: "CC(C)(C)C(=O)Oc1ccc2c(c1)nc(NC(=O)c1cccc([N+](=O)[O-])c1)n2CCCO"
  reported-metric: "cell viability"
  observed-result: 105
- molecule: "CN1[C@@H]2CC(OC(=O)[C@@H](CO)c3ccccc3)C[C@H]1[C@H]1O[C@H]12 (some centres undefined)"
  reported-metric: "cell viability"
  observed-result: 97
- molecule: "O=C([O-])C(O)Cc1ccc(O)c(O)c1 (centres undefined)"
  reported-metric: "cell viability"
  observed-result: 75.7
- molecule: "CC1(C)O[C@@H]2C[C@H]3[C@@H]4CCC5=CC(=O)C=C[C@]5(C)[C@@]4(F)[C@@H](O)C[C@]3(C)[C@]2(C(=O)CO)O1"
  reported-metric: "cell viability"
  observed-result: 17.7

---

test system: NOMO1; test: cell viability relative to DMSO control; higher = less cytotoxic; conditions: RPMI 5 mM glucose + 10% dialyzed FBS; 48 h; 15.4 µM
Catalogue of cell viability readings, one per entry.

- compound: "CN(C)CCOc1cc(-c2cn[nH]c2)ccc1NC(=O)C1COc2ccccc2O1 (stereo not drawn)"
  cell viability (%): 71.8
- compound: "CC1(C)Cc2c(-c3ccccc3)c(-c3ccc(Cl)cc3)c(CC(=O)O)n2C1"
  cell viability (%): 91.8
- compound: "CC(=O)N(C)c1cccc(-c2ccnc3c(C(=O)c4cccs4)cnn23)c1"
  cell viability (%): 99.6

---

system: SEM cells; test: cell viability relative to DMSO control; higher = less cytotoxic; details: HPLM + 10% dialyzed FBS; 48 h; 1.71 µM

- molecule: "CC\\1=C(C(\\N=C(/N1)C2=CC(=NC=C2)Cl)C3=C(F)C=C(Cl)C=C3)/C(=O)NC4=C(F)C=C5[NH]N=CC5=C4 (stereo not drawn)"
  unit: "%"
  cell viability: 103
- molecule: "OC1=CC=C(C=C1)\\C2=C\\OC3=C(C=CC(=C3)O)C2=O"
  unit: "%"
  cell viability: 102
- molecule: "COC1=NC(=NC(=C1N\\C2=N\\CCN2)Cl)C"
  unit: "%"
  cell viability: 102
- molecule: "NC1(Cc2ccc(Cl)cc2)CCN(c2ncnc3[nH]ccc23)CC1"
  unit: "%"
  cell viability: 75.7
- molecule: "O=C(NCC[S+](=O)([O-])c1ccc(C(F)(F)F)cn1)c1ccc(Cl)cc1"
  unit: "%"
  cell viability: 106
- molecule: "CN(C)c1ccc(O)c2c1C[C@H]1C[C@H]3[C@H](N(C)C)C(O)=C(C(N)=O)C(=O)[C@@]3(O)C(O)=C1C2=O"
  unit: "%"
  cell viability: 104
- molecule: "N=C(CCSCc1csc(N=C(N)N)n1)N[S+](N)(=O)[O-]"
  unit: "%"
  cell viability: 98.5
- molecule: "CO[C@H]1/C=C/O[C@@]2(C)Oc3c(C)c(O)c4c(O)c(c5c(nc6cc(C)ccn65)c4c3C2=O)NC(=O)/C(C)=C\\C=C\\[C@H](C)[C@H](O)[C@@H](C)[C@@H](O)[C@@H](C)[C@H](OC(C)=O)[C@@H]1C"
  unit: "%"
  cell viability: 104

---

test system: P12-Ichikawa; assay: cell viability relative to DMSO control; higher = less cytotoxic; details: RPMI 5 mM glucose + 10% dialyzed FBS; 48 h; 5.12 µM
Attribute: cell viability

- compound: "Cc1cc(OCCCc2c(C(=O)O)n(Cc3cccnc3)c3c(-c4c(COc5ccc(N6CCN([S+](C)(=O)[O-])CC6)cc5)nn(C)c4C)cccc23)cc(C)c1Cl"
  unit: "%"
  cell viability: 93.1
- compound: "OC(=O)C1=CC=C(NC2=NC3=C(C\\N=C(/C4=CC(=CC=C34)Cl)C5=C(F)C=CC=C5F)C=N2)C=C1"
  unit: "%"
  cell viability: 36.6
- compound: "CCC[C@H](NC(=O)/C(C#N)=C/c1cccc(Br)n1)c1ccccc1"
  unit: "%"
  cell viability: 107
- compound: "CCc1cc(Nc2nccc(-c3c(-c4ccc(OC)c(C(=O)Nc5c(F)cccc5F)c4)nc4ccccn34)n2)c(OC)cc1N1CCC(N2CCN([S+](C)(=O)[O-])CC2)CC1"
  unit: "%"
  cell viability: 115
- compound: "Cc1nc(NC(=O)N2CCC[C@H]2C(N)=O)sc1-c1ccnc(C(C)(C)C(F)(F)F)c1"
  unit: "%"
  cell viability: 63.7
- compound: "COC1=CC=CC=C1C2=CC=CC(=C2)C/3=C(O)/C4=CC(=C(Cl)C=C4NC3=O)C#N"
  unit: "%"
  cell viability: 45.5
- compound: "CC(C)C(C)/C=C/C(C)C1CCC2C3=CC=C4CC(O)CCC4(C)C3CCC21C (configuration not stated)"
  unit: "%"
  cell viability: 92.8
